- Subject Of Test: rat CYP17 lyase (Rattus norvegicus (Rat), UniProt P11715)
- Sequence (P11715 whole entry): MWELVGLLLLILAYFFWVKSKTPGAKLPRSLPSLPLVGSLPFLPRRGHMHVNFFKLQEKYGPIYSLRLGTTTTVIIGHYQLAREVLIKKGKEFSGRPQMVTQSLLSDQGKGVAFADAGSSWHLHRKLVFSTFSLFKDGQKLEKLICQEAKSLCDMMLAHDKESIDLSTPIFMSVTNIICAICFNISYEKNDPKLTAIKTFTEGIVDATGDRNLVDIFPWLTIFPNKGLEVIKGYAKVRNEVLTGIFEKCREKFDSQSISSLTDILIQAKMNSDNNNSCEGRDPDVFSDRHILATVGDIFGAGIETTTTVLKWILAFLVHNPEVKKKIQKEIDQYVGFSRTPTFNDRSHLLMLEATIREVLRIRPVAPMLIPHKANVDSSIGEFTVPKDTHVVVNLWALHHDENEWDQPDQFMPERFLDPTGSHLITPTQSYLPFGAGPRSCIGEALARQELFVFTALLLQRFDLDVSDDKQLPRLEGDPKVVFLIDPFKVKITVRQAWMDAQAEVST
- Assay Comment: rat CYP 17 Lyase model, rat testes microsomes as the source
- Assay type: biochemical
- Condition Summary: 100 nM compound; read-out: rCYP17 Lyase % Inh @ 100 nM
Experimental Readout: inhibition at 0.1 µM (%)

// solved cases for inhibition at 0.1 µM follow
- Compound: "CCn1ccc2cc(N3CCN(c4cccnc4)C3=O)ccc21"
  inhibition at 0.1 µM, %: 23
- Compound: "Cc1ccncc1N1CCN(c2ccc(F)cc2)C1=O [Example 18A]"
  inhibition at 0.1 µM, %: 88
- Compound: "Cc1ccncc1N1CCN(c2cnc3ccccc3c2)C1=O [Example 24A]"
  inhibition at 0.1 µM, %: 98
- Compound: "Cc1ccncc1N1CCN(c2ccc3sccc3c2)C1=O [Example 27A]"
  inhibition at 0.1 µM, %: 101
- Compound: "O=C1N(c2cccnc2)CCN1c1ccc2sccc2c1"
  inhibition at 0.1 µM, %: 87
- Compound: "Cc1ccncc1N1CCN(c2ccc3[nH]c(=O)cc(C)c3c2)C1=O [Example 22A]"
  inhibition at 0.1 µM, %: 85

(A) O=C1N(c2cccnc2)CCCN1c1ccc2ccccc2c1 [Example 10A]
(B) Cc1ccncc1N1CCN(c2ccc3ccccc3n2)C1=O [Example 23A]
(C) O=C1N(c2cccnc2)CCN1c1ccc2scnc2c1
(D) O=C1N(c2cncc(C(F)(F)F)c2)CCN1c1ccc2ccccc2c1 [Example 79A]
Hey, can you sort those compounds up there by inhibition at 0.1 µM, smallest first? Put the labels in the requested order and write them down.
D, A, C, B
(D: 3.6%, A: 11%, C: 18%, B: 85%)

###

- Subject Of Test: rat CYP17 lyase (Rattus norvegicus (Rat))
- Assay Comment: rat CYP 17 Lyase model, rat testes microsomes as the source
- Type: biochemical
- Condition Summary: rat testes microsomes, substrate 0.5 μM; read-out: Lyase IC 50 nM Human/Rat (Rat)
Experimental Readout: IC50 (nM)

- Compound: "Cc1ccncc1N1CCN(c2ccc3ncccc3c2)C1=O [Example 52A]"
  Experimental Value: 5
- Compound: "Cc1ccncc1N1CCN(c2ccc3[nH]ncc3c2)C1=O [Example 28A]"
  Experimental Value: 52
- Compound: "Cc1ccncc1N1CCN(c2ccc3[nH]c(=O)cc(C)c3c2)C1=O [Example 22A]"
  Experimental Value: 24

(I) Cc1ccncc1N1CCN(c2ccc(-c3ccccc3)cc2)C1=O [Example 19A]
(II) O=C1N(c2cccnc2)CCN1c1ccc2ccccc2c1
Of the two listed items, which has the higher IC50? First: I Second: II Bench note: the answer is the label of the chosen record.
II

###

- Subject Of Test: recombinant human CYP17 enzyme (Homo sapiens (Human))
- Sequence (P05093 whole entry): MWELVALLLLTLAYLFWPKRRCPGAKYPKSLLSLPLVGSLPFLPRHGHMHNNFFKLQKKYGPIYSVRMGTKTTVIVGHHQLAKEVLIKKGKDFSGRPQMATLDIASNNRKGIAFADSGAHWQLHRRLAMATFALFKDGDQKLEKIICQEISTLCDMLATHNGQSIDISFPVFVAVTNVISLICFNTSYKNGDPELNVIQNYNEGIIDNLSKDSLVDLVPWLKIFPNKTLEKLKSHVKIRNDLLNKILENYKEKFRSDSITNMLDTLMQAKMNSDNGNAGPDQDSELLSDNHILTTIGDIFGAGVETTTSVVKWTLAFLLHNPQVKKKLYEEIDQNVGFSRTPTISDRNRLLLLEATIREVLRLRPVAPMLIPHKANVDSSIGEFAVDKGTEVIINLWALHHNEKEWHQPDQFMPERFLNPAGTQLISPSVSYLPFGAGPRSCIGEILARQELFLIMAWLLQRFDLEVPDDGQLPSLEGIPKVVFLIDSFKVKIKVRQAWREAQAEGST
- Assay Comment: Cytochrome P450, 17-20 lyase (CYP17-lyase) assay, tritiated acetic acid release from 17-α-hydroxy pregnenolone [21-3H]
- Format: biochemical
- Condition Summary: human CYP17, substrate 0.25 μM; read-out: Lyase IC 50 nM Human/Rat (Human)
- Procedure: Assay method was adopted from a published protocol with some modifications to suit our requirements (Dmitry N Grigoryev et al, Analytical Biochemistry, (1999) 267, 319-330). […] The tritiated acetic acid released in the assay thus extracted is quantified to determine the enzyme activity. […] Km for this substrate was determined by monitoring the tritiated acetic acid release as a function of substrate concentration. […]
Experimental Readout: IC50 (nM)

// solved cases for IC50 follow
- Compound: "Cc1ccncc1N1CCN(c2ccc(C#N)c(F)c2)C1=O [Example 140A]"
  Units Label: "nM"
  IC50: 97
- Compound: "Cc1cc(-n2ccn(-c3cnccc3C)c2=O)cs1 [Example 92A]"
  Units Label: "nM"
  IC50: 21
- Compound: "Cc1ccncc1N1CCN(c2ccc3[nH]nc(C)c3c2)C1=O [Example 95A]"
  Units Label: "nM"
  IC50: 119

(a) Cc1ccncc1N1CCN(c2ccsc2)C1=O [Example 31A]
(b) Cc1ccncc1N1CCN(c2ccc3c(N)n[nH]c3c2)C1=O [Example 123A]
I'm curious whether a or b has the smaller IC50 number. Which is it? Bench note: the answer is the label of the chosen record.
b
(b: 10 nM, a: 108 nM)

(I) Cc1ccncc1N1CCN(c2ccc(F)c(F)c2)C1=O [Example 45A]
(II) Cc1cc(Cl)ccc1N1CCN(c2cnccc2C)C1=O [Example 89A]
Of the two listed items, which has the higher IC50? First: I Second: II Bench note: the answer is the label of the chosen record.
II

The measured values listed here are drawn from patent USRE45173E1.
